target: Cannabinoid receptor 2 (Homo sapiens, UniProt P34972); assay: Allosteric modulation of human recombinant CB2 receptor expressed in HEK293 cells assessed as inhibition of [3H]CP55940 binding at 10 uM; type: cell-based
Sequence (P34972 whole entry): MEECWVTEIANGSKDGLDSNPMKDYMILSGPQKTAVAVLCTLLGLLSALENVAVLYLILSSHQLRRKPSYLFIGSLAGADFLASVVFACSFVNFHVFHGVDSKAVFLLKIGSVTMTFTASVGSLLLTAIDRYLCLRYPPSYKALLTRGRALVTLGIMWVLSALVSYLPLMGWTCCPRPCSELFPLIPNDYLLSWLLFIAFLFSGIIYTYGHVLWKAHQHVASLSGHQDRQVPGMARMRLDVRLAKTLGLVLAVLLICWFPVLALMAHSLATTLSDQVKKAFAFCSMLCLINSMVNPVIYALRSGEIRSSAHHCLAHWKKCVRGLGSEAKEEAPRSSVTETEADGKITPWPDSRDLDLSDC
inhibition values, listed per item
Your answer is read as %, so omit the unit and give the number.

smiles-str: CCc1c(C(=O)NCCc2ccc(C)cc2)[nH]c2ccc(Cl)cc12
property-name: inhibition
val: 29

Ask: Using the record for O=C(NCCc1ccc([N+](=O)[O-])cc1)c1cc2cc(Cl)ccc2[nH]1 , state its measured inhibition.
Reply: 32.7

Ask: Using the record for CCc1c(C(=O)NCCc2ccc(N3CCCCC3)cc2)[nH]c2ccc(Cl)cc12 , state its measured inhibition.
Reply: 20.6

Ask: Using the record for CCc1c(C(=O)NCCc2ccc(NC)cc2)[nH]c2ccc(Cl)cc12 , state its measured inhibition.
Reply: 55.7

Ask: Using the record for CC(=O)c1c(C(=O)NCCc2ccc(N3CCCCC3)cc2)[nH]c2ccc(Cl)cc12 , state its measured inhibition.
Reply: 7.9

* * *

target: Cannabinoid receptor 2 (Homo sapiens, UniProt P34972); experiment: Allosteric modulation of human recombinant CB2 receptor expressed in HEK293 cells assessed as inhibition of [3H]CP55940 binding
property-name: IC50

Some compounds with known IC50 results, for comparison:
compound: CC(O)c1c(C(=O)NCCc2ccc(N3CCCCC3)cc2)[nH]c2ccc(Cl)cc12 (racemic)
IC50: > 10 µM

compound: O=C(NCCc1ccc([N+](=O)[O-])cc1)c1cc2cc(Cl)ccc2[nH]1
IC50: > 10 µM

compound: O=C(NCCc1ccc(Cl)cc1)c1cc2cc(Cl)ccc2[nH]1
IC50: > 10 µM

compound: CCc1c(C(=O)NCCc2ccc(Cl)cc2)[nH]c2ccc(Cl)cc12
IC50: > 10 µM

Ask: Using the record for CCc1c(C(=O)NCCc2ccc(N3CCCCC3)cc2)[nH]c2ccccc12 , state its measured IC50.
Reply: 8.97 µM

Ask: Using the record for CCc1c(C(=O)NCCc2ccc(N3CCCCC3)cc2)[nH]c2ccc(Cl)cc12 , state its measured IC50.
Reply: > 10 µM

* * *

biological target: Cannabinoid receptor 2 (Homo sapiens, UniProt P34972); assay: Allosteric modulation of human recombinant CB2 receptor expressed in HEK293 cells assessed as inhibition of [3H]CP55940 binding at 10 uM; type: cell-based
property-name: inhibition (%)
Your answer is read as %, so omit the unit and give the number.

smiles-str: CCc1c(C(=O)NCCc2ccc([N+](=O)[O-])cc2)[nH]c2ccc(Cl)cc12
result-unit: %
val: 0

smiles-str: CCc1c(C(=O)NCCc2ccc(F)cc2)[nH]c2ccc(Cl)cc12
result-unit: %
val: 37.7

smiles-str: O=C(NCCc1ccc(N2CCCCC2)cc1)c1cc2cc(Cl)ccc2[nH]1
result-unit: %
val: 37.9

smiles-str: CCc1c(C(=O)NCCc2ccc(N3CCCCC3)cc2)[nH]c2ccccc12
result-unit: %
val: 55.2

smiles-str: O=C(NCCc1ccc(Cl)cc1)c1cc2cc(Cl)ccc2[nH]1
result-unit: %
val: 11.1

Ask: Using the record for CCc1c(C(=O)OCCc2ccc(N(C)C)cc2)[nH]c2ccc(Cl)cc12 , state its measured inhibition.
Reply: 65.7

* * *

molecular target: UniProtKB P34972; assay: Allosteric modulation of human recombinant CB2 receptor expressed in HEK293 cells assessed as inhibition of [3H]CP55940 binding
pIC50: −log10 of the molar value.
pIC50 values, listed per item

smiles-str: CCc1c(C(=O)NCCc2ccc(N3CCN(C)CC3)cc2)[nH]c2ccc(Cl)cc12
pIC50: 5.16
--
smiles-str: Nc1ccc(CCNC(=O)c2cc3cc(Cl)ccc3[nH]2)cc1
pIC50: < 5.00
--
smiles-str: CCc1c(C(=O)NCCc2ccc(C)cc2)[nH]c2ccc(Cl)cc12
pIC50: < 5.00
--
smiles-str: CCc1c(C(=O)NCCc2ccc(N(C)C)cc2)[nH]c2ccc(Cl)cc12
pIC50: < 5.00

Here's the next entry for you.
Ask: Using the record for CCc1c(C(=O)NCCc2ccc([N+](=O)[O-])cc2)[nH]c2ccc(Cl)cc12 , state its measured pIC50.
Reply: < 5.00

Data origin: ChEMBL document CHEMBL2069250
